# Tested on: MCF-7 (hormone-dependent breast cancer)
# Measurement notes: MTT cytotoxicity assay, MCF-7
# Assay type: cell-based
# Condition set: selectivity index
Entries and their SI^2 = IC50 (MCF-10A)/IC50 (MCF-7)
Recorded endpoint: SI^2 = IC50 (MCF-10A)/IC50 (MCF-7)

Molecule	Endpoint value
COc1cc(C=CC(=O)C=C([O-])C=Cc2ccc(O)c(OC)c2)ccc1O.F[P-](F)(F)(F)(F)F.[Ru+2].c1ccc(-c2ccccn2)nc1.c1ccc(P(c2ccccc2)c2ccccc2)cc1.c1ccc(P(c2ccccc2)c2ccccc2)cc1 [Ru3, [Ru(cur)(PPh3)2(bipy)]PF6]	0.45
O=C(CC(=O)c1ccccc1)c1ccccc1	4.34
CC(=O)C=C(C)[O-].F[P-](F)(F)(F)(F)F.[Ru+2].c1ccc(-c2ccccn2)nc1.c1ccc(P(c2ccccc2)c2ccccc2)cc1.c1ccc(P(c2ccccc2)c2ccccc2)cc1 [Ru1, [Ru(acac)(PPh3)2(bipy)]PF6]	0.91
COc1cc(/C=C/C(=O)CC(=O)/C=C/c2ccc(O)c(OC)c2)ccc1O	0.84
F[P-](F)(F)(F)(F)F.O=C(C=C([O-])c1ccccc1)c1ccccc1.[Ru+2].c1ccc(-c2ccccn2)nc1.c1ccc(P(c2ccccc2)c2ccccc2)cc1.c1ccc(P(c2ccccc2)c2ccccc2)cc1 [Ru2, [Ru(dbm)(PPh3)2(bipy)]PF6]	0.98
